- Test system: Es-2
- ASSAY_METHOD_TEXT: Primary qHTS to identify gynecologic anti-cancer compounds using libraries of approved drugs and bioactive compounds (AID 1345084); also: nearly all actives have a fitted effect of over 55% in size; also: potency is read from the fitted curve at half-maximal effect
- TEST_PARAMETERS: Gynecologic cancer cell panel viability, ATPlite luminescence, 48 h; series mostly up to 57.5 µM
- Text: National Center for Advancing Translational Sciences [NCATS] Assay Overview: Chemotherapeutic drug responses vary from cancer to cancer and from patient to patient. […] ATPlite is a luminescence based assay reliant on the conversion of a luciferase substrate to light in the presence of ATP. As a cytotoxic compound will suppress growth and decrease the number of cells, the concentration of ATP will decrease, and less light signal will be detected in the well. […]
Results filed as inconclusive are left out. Activity calls are given as the source filed them. Calls follow the shape of the dose curve; as a rule, active = well fitted cell-killing curve with a large enough effect; inconclusive = small, poorly fitted or top-dose-only effect, or effect the other way; inactive = flat fitted curve, though single readings scatter.
OUTCOME_MEASURE: Potency

COMPOUND	Potency
COc1ccccc1N1CCN(CC(O)COc2cccc3ccccc23)CC1 (stereo unspecified)	25.1 µM (active)
CN1CCC(=C2c3ccccc3CC(=O)c3sccc32)CC1	inactive
CS(=O)(=O)CCNCc1ccc(-c2ccc3ncnc(Nc4ccc(OCc5cccc(F)c5)c(Cl)c4)c3c2)o1	inactive
CC[C@@]1(O)C(=O)OCc2c1cc1n(c2=O)Cc2cc3c(CN(C)C)c(O)ccc3nc2-1	2 µM (active)
Clc1ccccc1C(c1ccccc1)(c1ccccc1)n1ccnc1	inactive
Cn1ccc2cc3c(cc21)CCN3C(=O)Nc1cccnc1	inactive
CC(C)(C)C(=O)Oc1ccc(S(=O)(=O)Nc2ccccc2C(=O)NCC(=O)O)cc1	inactive
COc1ccc2[nH]cc(CCNC(C)=O)c2c1	inactive

Would you mind listing Potency for each of the following compounds?
1. NC(=O)NO
2. C[C@](N)(Cc1ccc(O)c(O)c1)C(=O)O
3. COc1ccccc1OCC(O)CN1CCN(CC(=O)Nc2c(C)cccc2C)CC1 (stereo unspecified)

1: inactive; 2: inactive; 3: inactive
